experiment: Stability of compounds in human plasma; format: in vitro ADME; conditions: 37°C, 5 µmol/L, read-out: Residual percentage (%)
For each record, write down the corresponding remaining at 4 h, 5 µM.
Numbers only here, please. The scale is %.

Task: Which remaining at 4 h, 5 µM is listed for CC[C@@]1(O)C(=O)OCc2c1cc1n(c2=O)Cc2c-1nc1cc(F)c(C3CC3)c3c1c2C(NC(=O)C[C@@H](C)O)CC3 (single isomer, unassigned) ?
Output: 93.8

Task: Which remaining at 4 h, 5 µM is listed for `CC[C@@]1(O)C(=O)OCc2c1cc1n(c2=O)Cc2c-1nc1cc(F)c(C)c3c1c2[C@@H](NC(=O)CO)CC3` ?
Output: 83.6

Task: Which remaining at 4 h, 5 µM is listed for CC[C@@]1(O)C(=O)OCc2c1cc1n(c2=O)Cc2c-1nc1cc(F)c(C)c3c1c2C(NC(=O)C[C@@H](C)O)CCC3 (single isomer, unassigned) ?
Output: 93.7

Task: Which remaining at 4 h, 5 µM is listed for `CC[C@@]1(O)C(=O)OCc2c1cc1n(c2=O)Cc2c-1nc1cc(F)c(C)c3c1c2[C@@H](NC(=O)[C@@H](O)C1CC1)CCC3` ?
Output: 93.4

---

For each record, write down the corresponding IC50.
system: SK-BR-3; assay: Inhibition of proliferation of SK-BR-3 cells by compounds (CellTiter-Glo, 72 h); assay type: cell-based; conditions: Homo sapiens, SK-BR-3, 72 h, SK-BR-3, 72 h incubation
Numbers only here, please. The scale is nM.

Task: Which IC50 is listed for CC[C@@]1(O)C(=O)OCc2c1cc1n(c2=O)Cc2c-1nc1cc(F)c(C)c3c1c2C(NC(=O)C[C@@H](C)O)CCC3 (single isomer, unassigned) ?
Output: 7.3

Task: Which IC50 is listed for `CC[C@@]1(O)C(=O)OCc2c1cc1n(c2=O)Cc2c-1nc1cc(F)c(C)c3c1c2[C@@H](NC(=O)C[C@@H](C)O)CCO3` ?
Output: 16

Task: Which IC50 is listed for CC[C@@]1(O)C(=O)OCc2c1cc1n(c2=O)Cc2c-1nc1cc(F)c(C3CC3)c3c1c2C(NC(=O)C[C@@H](C)O)CC3 (single isomer, unassigned) ?
Output: 4.6

Task: Which IC50 is listed for `CC[C@@]1(O)C(=O)OCc2c1cc1n(c2=O)Cc2c-1nc1cc(F)c(C)c3c1c2[C@@H](NC(=O)CO)CC3` ?
Output: 11

Task: Which IC50 is listed for CC[C@@]1(O)C(=O)OCc2c1cc1n(c2=O)Cc2c-1nc1cc(F)c(C3CC3)c3c1c2C(NC(=O)[C@H]1C[C@@H](O)C1)CC3 (single isomer, unassigned) ?
Output: 9.6

Task: Which IC50 is listed for CC[C@@]1(O)C(=O)OCc2c1cc1n(c2=O)Cc2c-1nc1cc(F)c(C3CC3)c3c1c2C(NC(=O)[C@H]1C[C@@H](O)C1)CCC3 (single isomer, unassigned) ?
Output: 21

Task: Which IC50 is listed for `CC[C@@]1(O)C(=O)OCc2c1cc1n(c2=O)Cc2c-1nc1cc(F)c(C)c3c1c2[C@@H](NC(=O)[C@@H](O)C1CC1)CCO3` ?
Output: 9

Task: Which IC50 is listed for `CC[C@@]1(O)C(=O)OCc2c1cc1n(c2=O)Cc2c-1nc1cc(F)c(C)c3c1c2[C@@H](NC(=O)[C@H](O)C1CC1)CCO3` ?
Output: 16

Task: Which IC50 is listed for `CC[C@@]1(O)C(=O)OCc2c1cc1n(c2=O)Cc2c-1nc1cc(F)c(C)c3c1c2[C@H](NC(=O)C[C@@H](C)O)CCO3` ?
Output: 47

Task: Which IC50 is listed for CC[C@@]1(O)C(=O)OCc2c1cc1n(c2=O)Cc2c-1nc1cc(F)c(C3CC3)c3c1c2C(NC(=O)C[C@@H](C)O)CCC3 (single isomer, unassigned) ?
Output: 8.3

Cited source: patent EP4692091A1
